- TEST SYSTEM: T1, HSP70 (human HSP70; the antigen of the binning, humanization and variant binding assays) (human, UniProt P0DMV8 1-641, limits assumed)
- T1 construct: also called hu HSP70
- T1 sequence (P0DMV8 whole entry, change not shown): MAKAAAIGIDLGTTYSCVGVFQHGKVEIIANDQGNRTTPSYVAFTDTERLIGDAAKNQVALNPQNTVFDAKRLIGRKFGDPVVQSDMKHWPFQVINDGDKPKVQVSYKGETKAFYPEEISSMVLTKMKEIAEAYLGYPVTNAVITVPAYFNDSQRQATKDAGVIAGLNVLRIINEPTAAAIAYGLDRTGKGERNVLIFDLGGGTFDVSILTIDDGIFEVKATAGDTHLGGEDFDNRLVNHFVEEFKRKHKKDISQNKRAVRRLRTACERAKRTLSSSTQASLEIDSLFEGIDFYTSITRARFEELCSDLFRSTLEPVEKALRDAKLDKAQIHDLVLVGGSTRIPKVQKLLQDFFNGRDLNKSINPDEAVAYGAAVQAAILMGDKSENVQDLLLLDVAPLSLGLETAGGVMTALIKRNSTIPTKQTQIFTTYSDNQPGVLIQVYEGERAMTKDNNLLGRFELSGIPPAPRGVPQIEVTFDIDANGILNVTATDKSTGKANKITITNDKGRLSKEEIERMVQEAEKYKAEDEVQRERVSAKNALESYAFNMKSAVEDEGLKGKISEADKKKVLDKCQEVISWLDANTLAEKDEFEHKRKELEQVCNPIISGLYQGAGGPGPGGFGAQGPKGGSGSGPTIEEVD
- TEST: BLI, anti-human Fc capture, antigen dilution series, 1:1 fit
QUANTITY KIND: kon (M⁻¹ s⁻¹)
Just the number please, in M⁻¹ s⁻¹, no unit attached.

BINDER | QUANTITY KIND | MEASURE UNIT | REPORTED
h77A-1.12 (antibody, V domains shown, captured by anti-human Fc) VH: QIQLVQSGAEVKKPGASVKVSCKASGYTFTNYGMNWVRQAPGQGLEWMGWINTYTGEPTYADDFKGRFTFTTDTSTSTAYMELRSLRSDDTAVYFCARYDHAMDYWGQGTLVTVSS VL: EIVLTQSPDSLAVSLGERATINCKSSQSLFNSGTRKNYLAWYQQKAGQSPKLLIYWTSTRESGVPDRFSGSGSGTDFTLTIDSLQAEDVAVYYCKQSYTLYTFGGGTKVEIK | kon | M⁻¹ s⁻¹ | 51700
h77A-1.6 (antibody, V domains shown, captured by anti-human Fc) VH: QIQLVQSGAEVKKPGASVKVSCKASGYTFTNYGMNWVRQAPGQGLEWMGWINTYTGEPTYADDFKGRFTFTTDTSTRTAYMELRSLRSDDTAVYFCARYDHAMDYWGQGTLVTVSS VL: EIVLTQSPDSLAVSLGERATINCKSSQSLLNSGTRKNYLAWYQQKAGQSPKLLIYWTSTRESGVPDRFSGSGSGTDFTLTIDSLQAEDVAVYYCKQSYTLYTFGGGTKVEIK | kon | M⁻¹ s⁻¹ | 54200

Query: Using the record for h77A-1.22 (antibody, V domains shown, captured by anti-human Fc) VH: QIQLVQSGAEVKKPGASVKVSCKASGYTFTNYGMNWVRQAPGQGLEWMGWINTYTGEPTYSDDFKGRFTFTTDTSTSTAYMELRSLRSDDTAVYFCARYDHAMDYWGQGTLVTVSS VL: EIVLTQSPDSLAVSLGERATINCKSSQSLFNSGTRKNYLAWYQQKAGQSPKLLIYWTSTRESGVPDRFSGSGSGTDFTLTIDSLQAEDVAVYYCKQSYTLYTFGGGTKVEIK , report its kon.
Reply: 66900
